Catalogue of pEC50 values
Target: human GPR40 receptor (Homo sapiens, UniProt O14842)
Sequence (O14842 whole entry): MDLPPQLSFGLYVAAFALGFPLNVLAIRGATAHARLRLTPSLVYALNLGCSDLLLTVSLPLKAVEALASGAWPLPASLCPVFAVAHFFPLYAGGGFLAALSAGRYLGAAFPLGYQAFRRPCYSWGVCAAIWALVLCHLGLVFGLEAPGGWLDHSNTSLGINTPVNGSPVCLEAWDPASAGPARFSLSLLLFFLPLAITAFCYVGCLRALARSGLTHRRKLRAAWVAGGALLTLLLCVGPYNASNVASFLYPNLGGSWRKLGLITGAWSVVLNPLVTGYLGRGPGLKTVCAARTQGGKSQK
Assay: IP1 accumulation measurements using the IPOne assay system (1321N1 cells stably expressing human GPR40 receptor)
Conditions: 1321N1 cells expressing human GPR40, 1 h stimulation at 37° C.
pEC50: −log10 of the molar value.

MOLECULE: N#Cc1cccc(C#N)c1-c1ccc(F)c2c1CC[C@H]2Nc1ccc([C@H]2C[C@@H]2C(=O)O)cn1 [Example 44]
TARGET: human GPR40 receptor (Homo sapiens, UniProt O14842)
pEC50: 5.38
--
MOLECULE: O=C(O)[C@H]1C[C@@H]1c1ccc(N[C@@H]2CCc3c(-c4c(F)cccc4F)ccc(F)c32)nc1 [Example 55]
TARGET: human GPR40 receptor (Homo sapiens, UniProt O14842)
pEC50: 6.68
--
MOLECULE: O=C(O)[C@H]1C[C@@H]1c1ccc(N[C@@H]2CCc3c(-c4c(F)cc(OC5CC5)cc4F)ccc(F)c32)nc1 [Example 60]
TARGET: human GPR40 receptor (Homo sapiens, UniProt O14842)
pEC50: 7.21
--
MOLECULE: Cc1cc(OCCC(C)(C)O)cc(C)c1-c1cccc2c1CC[C@H]2Nc1ccc([C@H]2C[C@@H]2C(=O)O)cn1 [Example 2]
TARGET: human GPR40 receptor (Homo sapiens, UniProt O14842)
pEC50: 7.96
